- method: NCI Yeast Anticancer Drug Screen. Data for the rad14 strain (AID 159);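 note: 0% = growth of vehicle-treated control cultures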
- test-parameters: S. cerevisiae rad14 strain growth inhibition; at 3.7 µM; hits give high values
About 79,000 compounds went through this panel and 15% of them were active in at least one assay; those are over-represented in the sample as a whole.
Collected growth inhibition values appear next to each entry.
Report the value in % with no unit label.

# molecule, endpoint-result
data = [
    ("CCN(CC)Cc1cc(Nc2c3ccccc3nc3c2[nH]c2ccccc23)cc(CN(CC)CC)c1O", -3),
    ("CCCCCCCCCCCC(O)S(=O)(=O)O (centres undefined)", 4),
]

Exercise: What does the data say about its growth inhibition? Entry: "CCCCCCCCCCCCNC(C)=O"
Key: 0

Exercise: What does the data say about its growth inhibition? Entry: "Nc1n[n+]([O-])c2ccc(Cl)cc2[n+]1[O-]"
Key: 32

Exercise: What does the data say about its growth inhibition? Entry: "COc1cc(CSc2ccc(O)cc2)cc(O)c1O"
Key: 2

Exercise: What does the data say about its growth inhibition? Entry: "CC(/C=C/c1ccccc1)=N\NC(N)=S"
Key: 2

Exercise: What does the data say about its growth inhibition? Entry: "COc1ccc(C(=O)Oc2ccccc2Br)cc1"
Key: -1

Exercise: What does the data say about its growth inhibition? Entry: "CC1=CC(=C(c2ccc(N)cc2)c2ccc(N)cc2)C=CC1=N"
Key: 0

Exercise: What does the data say about its growth inhibition? Entry: "CCCCCCCCCCCCCCCCCC(=O)NCCCN(C)C"
Key: -29

Exercise: What does the data say about its growth inhibition? Entry: "O=[N+]([O-])c1cc(F)c(F)cc1Sc1cc(F)c(F)cc1[N+](=O)[O-]"
Key: 17

Exercise: What does the data say about its growth inhibition? Entry: COC(C(O)CO)C(O)C(O)C(=O)NNc1ccccc1 (centres undefined)
Key: 9

Exercise: What does the data say about its growth inhibition? Entry: "CCN(CC)CCN(C)CCc1ccc(Br)cc1"
Key: 36

* * *

Collected growth inhibition values appear next to each entry.
- method: NCI Yeast Anticancer Drug Screen. Data for the mlh1 rad18 strain (AID 175)
- test-parameters: S. cerevisiae mlh1 rad18 strain growth inhibition; at 5.0 µM (retest, dose inferred, filed as 0.5); hits give high values
Compounds without any hit were thinned out: in the full panel of roughly 79,000, 15% have a hit.
Report the value in % with no unit label.

# compound, endpoint-result
data = [
    ("Cc1ccc(Cl)cc1NC(=O)OCCN(C)C(=O)Nc1cc(Cl)ccc1C", 45),
    ("Cc1csc(=S)n1OC(=O)NC1CCCCC1", 97),
    ("O=C(CSC(=S)N1CCCCC1)Nc1nc2c(s1)CCCC2", 16),
    ("O=C(/C=C(/c1ccccc1)N1CCCCC1)c1ccccc1", 55),
    ("O/N=C\\c1c(O)ccc2ccccc12", 3),
]

Exercise: What does the data say about its growth inhibition? Entry: COc1cc([C@@H]2c3cc4c(cc3[C@H](OC3OC5COC(C(C)C)OC5C(O)C3O)C3COC(=O)[C@@H]32)OCO4)cc(OC)c1O (stereo not given in full)
Key: 18

Exercise: What does the data say about its growth inhibition? Entry: "Cc1nc(Nc2ccccc2[N+](=O)[O-])sc1C(=O)CC(=O)C(=O)Nc1c(C(C)C)cccc1C(C)C"
Key: 4

Exercise: What does the data say about its growth inhibition? Entry: "CC(C)(C)C1=CC(=CC=C2C=CN(CCCCCCCCCCCO)C=C2)C=C(C(C)(C)C)C1=O"
Key: 98

Exercise: What does the data say about its growth inhibition? Entry: "CSc1nnc(SC)nn1"
Key: 58

Exercise: What does the data say about its growth inhibition? Entry: "OCc1ccccc1Cc1ccccc1"
Key: 3

Exercise: What does the data say about its growth inhibition? Entry: "CCCCCCCCCCCC1=NCCO1"
Key: -16

Exercise: What does the data say about its growth inhibition? Entry: O=C1CSC(c2cccc(Cl)c2)N1c1ccc(-c2ccc(-n3c(-c4ccccc4)nc4ccccc4c3=O)cc2)cc1 (stereo not given)
Key: 5

Exercise: What does the data say about its growth inhibition? Entry: CCCCCCN(CCCCCC)CC(O)c1ccnc2ccc(OC)cc12 (stereo not given)
Key: -3

* * *

- method: NCI Yeast Anticancer Drug Screen. Data for the mlh1 strain (AID 171);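 note: 0% = growth of vehicle-treated control cultures of the same strain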
- test-parameters: S. cerevisiae mlh1 strain growth inhibition; at 3.7 µM; hits give high values
The panel holds about 79,000 compounds, 15% with a hit somewhere; the sample as a whole holds those more often.
Collected growth inhibition values appear next to each entry.
Report the value in % with no unit label.

# molecule, unit-abbreviation, growth inhibition
records = [
    ("c1ccc2c(OCC3CO3)cccc2c1 (configuration not stated)", "%", 1),
    ("CCOC(=O)C(C(=O)OCC)=P(c1ccccc1)(c1ccccc1)c1ccccc1", "%", -2),
    ("CCOC(=O)[C@H]1Nc2ccc(OC)cc2C2c3ccccc3CC21 (some centres not stated)", "%", -21),
]

Exercise: What does the data say about its growth inhibition? Entry: "CC(C)(C)C1=CC(=CC=C2C=CN(CCCCCCCCCCCO)C=C2)C=C(C(C)(C)C)C1=O"
Key: 0

Exercise: What does the data say about its growth inhibition? Entry: "CC(C)OC(=O)c1ccc(CCc2cc(O)c(Br)cc2O)cc1"
Key: 70

Exercise: What does the data say about its growth inhibition? Entry: "CC12C(=O)OC(=O)C(c3ccccc31)c1ccccc12"
Key: -9

* * *

- method: NCI Yeast Anticancer Drug Screen. Data for the rad52 strain (AID 147);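 note: 0% = growth of vehicle-treated control cultures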
- test-parameters: S. cerevisiae rad52 mutant growth inhibition; at 3.7 µM; hits give high values
About 79,000 compounds went through this panel and 15% of them were active in at least one assay; those are over-represented in the sample as a whole.
measured-endpoint: growth inhibition (%)
Report the value in % with no unit label.

Worked examples, 3 compounds total:
# given-smiles, measured-endpoint, unit-abbreviation, endpoint-result
rows = [
    ("CCOc1ccccc1N=Cc1c2ccccc2cc2ccccc12", "growth inhibition", "%", 28),
    ("CCCCCCCCCCCCCCCCCC(=O)NCCCN(C)C", "growth inhibition", "%", -39),
    ("CCOC(=O)c1[nH]n(-c2ccccc2)c(=O)c1C=NC(=S)C(N)=S", "growth inhibition", "%", 21),
]

Now consider a different compound.
Exercise: What does the data say about its growth inhibition? Entry: "Oc1ccc(SCc2ccc(NCc3ccccc3)cc2)cc1"
Key: -27

* * *

Collected growth inhibition values appear next to each entry.
- method: NCI Yeast Anticancer Drug Screen. Data for the wt1 strain (AID 149);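 note: 0% = growth of vehicle-treated wt1 cultures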
- test-parameters: S. cerevisiae wt1 strain (SPY 50644) growth inhibition; at 11.0 µM; hits give high values
- Procedure: Growth inhibition of yeast strains with defined genetic alterations is measured as a screen for potential anti-cancer activity. Selected strains with alterations in DNA damage repair or cell cycle control were exposed to compounds and growth inhibition was measured relative to vehicle treated controls. The strain used in this assay is wt1
Compounds without any hit were thinned out: in the full panel of roughly 79,000, 15% have a hit.
Report the value in % with no unit label.

# molecule, endpoint-result
data = [
    ("COC1=C(OC)C(=O)C(Sc2ccc3ccccc3c2)=CC1=O", -13),
    ("COc1ccc(/C=C2\\NC(=S)N(/C=C3\\C(=O)Oc4ccccc4C3=O)C2=O)cc1", 1),
    ("NC(=O)C(=O)NNc1ccccc1", 45),
]

Exercise: What does the data say about its growth inhibition? Entry: "CN(C)CCNC(=O)c1cccc2cc([N+](=O)[O-])ccc12"
Key: 41

Exercise: What does the data say about its growth inhibition? Entry: "CN(CCN(C)Cc1ccccc1)Cc1ccccc1"
Key: -12

Exercise: What does the data say about its growth inhibition? Entry: "CC(=O)Nc1ccc2c(c1)-c1ccccc1C2=O"
Key: -48

Exercise: What does the data say about its growth inhibition? Entry: "O=c1nc2n(Cc3ccccc3)c3ccccc3nc-2c(=O)[nH]1"
Key: 2

Exercise: What does the data say about its growth inhibition? Entry: "Nc1ccc2c(c1)C(=O)c1ccc(F)cc1-2"
Key: 9

* * *

- method: NCI Yeast Anticancer Drug Screen. Data for the rad14 strain (AID 159);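 note: 0% = growth of vehicle-treated control cultures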
- test-parameters: S. cerevisiae rad14 strain growth inhibition; at 33.0 µM; hits give high values
About 79,000 compounds went through this panel and 15% of them were active in at least one assay; those are over-represented in the sample as a whole.
just bin them by growth inhibition: I: < 10%; II: ≥ 10% and < 80%; III: ≥ 80%

Worked examples, 6 compounds total:
# compound, class-name
data = [
    ("O=C1C=C(Cl)C(=O)C(c2ccc(Cl)cc2)=C1", "III"),
    ("OCc1ccccc1Cc1ccccc1", "I"),
    ("CNCCCNc1c2ccccc2nc2cccc([N+](=O)[O-])c12", "III"),
    ("CN(C)c1ccc(C2CC(C)(O)Oc3cc4c(cc32)OCO4)cc1 (stereo not drawn)", "II"),
    ("O=c1ssc(=Nc2ccccc2)n1-c1ccccc1", "II"),
    ("Cc1ccc(Sc2ccccc2N)cc1", "II"),
]

Exercise: Bin this entry: "COc1ccc(/C=C/c2sc3ccccc3[n+]2CCCCI)cc1OC"
Key: III

Exercise: Bin this entry: "O=[N+]([O-])c1cccc2nc3ccccc3c(NCCC[N+]3([O-])CCCCC3)c12"
Key: III

Exercise: Bin this entry: "O=C(O)CNC(=S)Nc1ccccc1"
Key: II

Exercise: Bin this entry: "NNC(=O)CCc1cc2ccccc2c2ccccc12"
Key: II

Exercise: Bin this entry: Cc1ccc(NC(c2ccccc2)c2ccc3cccnc3c2O)cc1 (stereo not drawn)
Key: I

Exercise: Bin this entry: Nc1ncnc2c1ncn2C1OC(CO)CC1O (stereo not drawn)
Key: II
